# ASSAY NAME: qHTS assay for small molecules that induce genotoxicity in human embryonic kidney cells expressing luciferase-tagged ATAD5 - cell viability (AID 651634); note: nearly all actives have a fitted effect of over 25% in size
# STATED CONDITIONS: HEK293T ATAD5-luc cells viability, CellTiter-Fluor, 15.5 h; series mostly up to 83.3 µM
Inconclusive results are not listed. Activity calls are given as the source filed them. Calls come from the whole dose curve.
Select the correct class. Options are active, inactive and nothing else.

>  <MOLECULE>
CC(=O)Oc1c(C)cc(OCC(O)CNC(C)C)c(C)c1C (stereo not given)

>  <ASSIGNED CATEGORY>
inactive

$$$$
>  <MOLECULE>
CCCc1ccc(C(=O)O)cc1

>  <ASSIGNED CATEGORY>
inactive

$$$$
>  <MOLECULE>
Nc1nc(=O)n([C@@H]2CS[C@H](CO)O2)cc1F

>  <ASSIGNED CATEGORY>
inactive

$$$$

[in] Answer briefly: the call reported for O=C(O)[C@@H](O)[C@H](O)[C@H](O)[C@@H](O)C(=O)O (tested in a mixture with another compound) in this assay.
[out] inactive

[in] Answer briefly: the call reported for CCOC(=O)C1=C[C@@H](OC(CC)CC)[C@H](NC(C)=O)[C@@H](N)C1 in this assay.
[out] inactive

[in] Answer briefly: the call reported for CC[C@@H](C(=O)O)[C@@H]1O[C@@H]([C@@H](C)[C@H](O)[C@H](C)C(=O)[C@H](CC)[C@H]2O[C@]3(C=C[C@@H](O)[C@]4(CC[C@@](C)([C@H]5CC[C@](O)(CC)[C@H](C)O5)O4)O3)[C@H](C)C[C@@H]2C)[C@@H](C)C[C@@H]1C in this assay.
[out] active

[in] Answer briefly: the call reported for CCC(=O)OCC(=O)[C@@]1(OC(=O)CC)[C@H](C)C[C@H]2[C@@H]3CCC4=CC(=O)C=C[C@]4(C)[C@@]3(F)[C@@H](O)C[C@@]21C in this assay.
[out] inactive

[in] Answer briefly: the call reported for CC(=O)O[C@]1(C(C)=O)CC[C@H]2[C@@H]3CCC4=CC(=O)CC[C@]4(C)[C@@]3(F)[C@@H](O)C[C@@]21C in this assay.
[out] inactive

[in] Answer briefly: the call reported for OCCO[C@@H]1[C@@H](O)[C@H](O)[C@@H](CO)O[C@@H]1O in this assay.
[out] inactive

[in] Answer briefly: the call reported for CN1[C@@H]2CCC[C@H]1CC(NC(=O)c1nn(C)c3ccccc13)C2 (stereo not given in full) in this assay.
[out] inactive

====

# ASSAY NAME: qHTS assay to identify small molecule antagonists of the androgen receptor (AR) signaling pathway - cell viability counter screen (AID 743033; note: nearly all actives have a fitted effect of over 45% in size)
# STATED CONDITIONS: AR-bla HEK293 viability, CellTiter-Glo luminescence, 16 h; series mostly up to 58.5 µM
Results filed as inconclusive are left out. Active and inactive are the calls of the source. The call rests on the fitted dose curve; in most records, active means well fitted cell-killing curve with a large enough effect in the repeat runs; inconclusive means weak or mixed curves; inactive means no such curve, though single readings can be large or run the other way.
Select the correct class. Options are active, inactive and nothing else.

Consider the worked cases shown below.
>  <MOLECULE>
COc1ccc(CNCC(O)COc2ccc3[nH]c(=O)ccc3c2)cc1OC (stereo not drawn)

>  <ASSIGNED CATEGORY>
inactive

$$$$
>  <MOLECULE>
CCNC(=O)[C@@H]1CCCN1C(=O)[C@H](CCCN=C(N)N)NC(=O)[C@H](CC(C)C)NC(=O)[C@@H](CC(C)C)NC(=O)[C@H](Cc1ccc(O)cc1)NC(=O)[C@H](CO)NC(=O)[C@H](Cc1c[nH]c2ccccc12)NC(=O)[C@H](Cc1cnc[nH]1)NC(=O)[C@@H]1CCC(=O)N1

>  <ASSIGNED CATEGORY>
inactive

$$$$
>  <MOLECULE>
COc1cc(Br)c(C[N+]2(CCOCCC3CCC4CC3C4(C)C)CCOCC2)cc1OC (stereo not drawn)

>  <ASSIGNED CATEGORY>
inactive

$$$$
>  <MOLECULE>
CCSc1ccc2c(c1)N(CCCN1CCN(C)CC1)c1ccccc1S2

>  <ASSIGNED CATEGORY>
inactive

$$$$

[in] Answer briefly: the call reported for CC[C@H]1NC(=O)[C@@H](NC(=O)c2ncccc2O)[C@@H](C)OC(=O)[C@H](c2ccccc2)NC(=O)[C@@H]2CC(=O)CCN2C(=O)[C@H](Cc2ccccc2)N(C)C(=O)[C@@H]2CCCN2C1=O in this assay.
[out] inactive

[in] Answer briefly: the call reported for CC(C)(C)NC(=O)[C@H]1CC[C@H]2[C@@H]3CC=C4C=C(C(=O)O)CC[C@]4(C)[C@H]3CC[C@]12C in this assay.
[out] inactive

[in] Answer briefly: the call reported for c1cnc2cc3c(cc2n1)[C@@H]1CNC[C@H]3C1 in this assay.
[out] inactive
